# assay.name: MTT assay, cytotoxicity on normal cells
# Assay type: cell-based, human
# applied.conditions: normal human embryonic kidney cells HEK293, MTT, 48 h
readout.type: IC50 at 48 h (nM)
Numbers only, in nM.

Qu. I have this compound here, CC(C)[C@]12O[C@H]1[C@@H]1O[C@]13[C@]1(O[C@H]1C[C@H]1C4=C(CC[C@@]13C)C(=O)OC4)[C@@H]2O [TP, Triptolide] , and I need its recorded IC50 at 48 h.
Ans. 5.98
